# assay.method.text: Solution stability test (residual ratio and generation of active form in buffers of pH 2.0 to 9.0)
# Format: physicochemical
# assay.context: pH2.0 buffer, 25° C., 25 umol/L, 9 hr
Structures can show the parent of a compound that is named as a salt.
attribute.measured: Residual ratio (%)
Please respond with the number in % and leave the unit unwritten.

Inquiry: Need Residual ratio, item NCCCNC(=O)Oc1c(OC(=O)NCCCN)c(-c2ccccc2)c2c(c1-c1ccccc1)OCO2 [Example 6]
Reply text: 100

Inquiry: Need Residual ratio, item CN1CC[C@H](c2c(OC(=O)N(C)CCN)cc(O)c3c(=O)cc(-c4ccccc4Cl)oc23)[C@H](O)C1 [Example 8]
Reply text: 100

Inquiry: Need Residual ratio, item C[C@H]1COc2c1c(OC(=O)NCCNCC(=O)O)c(OC(=O)NCCNCC(=O)O)c1c3c(ccc21)C(C)(C)CCC3 [Example 12, dihydrochloride]
Reply text: 98.7

Inquiry: Need Residual ratio, item CC(=O)c1cc2c(O)c3c(O)cccc3c(OC(=O)NCCCN)c2o1 [Reference Example 9, hydrochloride]
Reply text: 85.7

Inquiry: Need Residual ratio, item Cc1cc(OC(=O)NCCNCC(=O)O)c2ccccc2c1OC(=O)NCCNCC(=O)O [Example 2, dihydrochloride]
Reply text: 99.7

Inquiry: Need Residual ratio, item CC(=O)c1cc2c(OC(=O)NCCNCC(=O)O)c3ccsc3c(OC(=O)NCCNCC(=O)O)c2o1 [Example 1, dihydrochloride]
Reply text: 102

Sourced from patent US20200207782A1
